Source: ChEMBL document CHEMBL1201862

Kindly state IC50 for each of the entries shown.
Molecular target: Protein skinhead-1 (Caenorhabditis elegans)
Sequence (P34707 whole entry): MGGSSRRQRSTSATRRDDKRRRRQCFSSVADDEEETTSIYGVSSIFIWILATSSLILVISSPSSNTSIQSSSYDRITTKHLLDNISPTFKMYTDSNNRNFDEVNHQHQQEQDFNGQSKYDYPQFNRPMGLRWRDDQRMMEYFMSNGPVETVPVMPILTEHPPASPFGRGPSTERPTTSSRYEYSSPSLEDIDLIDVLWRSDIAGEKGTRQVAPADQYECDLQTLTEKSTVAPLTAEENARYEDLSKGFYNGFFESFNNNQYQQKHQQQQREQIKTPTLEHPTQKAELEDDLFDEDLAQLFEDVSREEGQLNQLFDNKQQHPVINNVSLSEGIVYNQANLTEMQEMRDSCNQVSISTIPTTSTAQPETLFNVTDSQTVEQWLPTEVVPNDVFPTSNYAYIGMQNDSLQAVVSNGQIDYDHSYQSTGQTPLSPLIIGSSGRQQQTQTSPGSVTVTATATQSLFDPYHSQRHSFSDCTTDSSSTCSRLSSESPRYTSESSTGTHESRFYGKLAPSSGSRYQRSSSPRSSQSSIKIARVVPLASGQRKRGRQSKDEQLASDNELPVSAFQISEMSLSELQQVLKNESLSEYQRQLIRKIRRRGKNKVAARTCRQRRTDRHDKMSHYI
Type: functional
Calls of active or inactive are those of the source.

# IC50 lookup, item "O=C(CC(O)(C(F)(F)F)C(F)(F)F)Nc1ccc(Cl)c(Cl)c1"
19.6 µM (active)

So what does the record say about IC50 for CSC1=NC(C)(C)CC2(CC(c3ccccc3)Oc3cc(O)ccc32)N1 (stereo not drawn) ?
> 100 µM (inactive)

Record request: IC50 value, item "CN(C)CCNc1ncnc2c1sc1nc(N3CCCC3)c3c(c12)CC(C)(C)OC3"
> 100 µM (inactive)

Name the recorded IC50 for "Fc1ccc(-c2cnc(-c3cccs3)o2)cc1" .
24 µM (active)

Which IC50 is reported for this molecule? "Cn1ccs/c1=N\C(=O)c1ccc(OC(F)(F)F)cc1"
29.8 µM (active)

Recorded IC50 of "Fc1cc(Cl)cc2ccc(-c3ccccc3)nc12" , please.
45.2 µM (active)

Which IC50 value belongs to "COC(=O)CN1C(=S)N(c2ccc(OC)cc2)C(=O)/C1=C/c1ccc(N2CCOCC2)cc1" ?
> 100 µM (inactive)

# query: IC50 of entry "N=C(NOC(=O)c1cc(Br)ccc1Cl)c1ccccn1"
41.8 µM (active)

---

# Cytochrome P450 2D6 (Homo sapiens, UniProt P10635): AC50 values follow;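 also: CYP2D6 member of a cytochrome P450 panel assay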
# Sequence (P10635 whole entry): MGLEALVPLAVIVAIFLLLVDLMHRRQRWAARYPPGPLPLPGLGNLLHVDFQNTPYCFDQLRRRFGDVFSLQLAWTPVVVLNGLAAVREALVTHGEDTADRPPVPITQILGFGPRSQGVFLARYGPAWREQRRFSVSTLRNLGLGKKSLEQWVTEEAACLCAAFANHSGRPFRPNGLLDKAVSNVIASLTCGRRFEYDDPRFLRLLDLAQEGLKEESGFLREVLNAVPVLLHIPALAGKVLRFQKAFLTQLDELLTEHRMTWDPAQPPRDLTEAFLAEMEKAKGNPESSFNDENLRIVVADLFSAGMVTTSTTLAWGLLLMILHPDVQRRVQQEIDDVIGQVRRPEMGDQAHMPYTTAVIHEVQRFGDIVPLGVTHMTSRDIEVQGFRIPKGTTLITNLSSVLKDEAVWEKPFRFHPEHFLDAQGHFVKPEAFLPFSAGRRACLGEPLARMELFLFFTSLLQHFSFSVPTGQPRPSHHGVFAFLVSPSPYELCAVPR

Give its AC50 value. Item: "O=C(c1ccco1)N1CCC[C@@]2(CCN(c3ccccc3)C2)C1"
20 µM (inconclusive)

I have this molecule here, "COc1ccccc1CN1CCCC2(CCN(C(=O)c3c(C)noc3C)CC2)C1" , and I need its recorded AC50.
12.6 µM (inconclusive)

Which measured AC50 value corresponds to "COc1ccc(S(=O)(=O)N2CCN(CC(=O)Nc3cccc(F)c3)CC2)cc1" ?
25.1 µM (inconclusive)

---

Biological target: Heat shock factor protein 1 (Mus musculus, UniProt P38532)
Sequence (P38532 whole entry): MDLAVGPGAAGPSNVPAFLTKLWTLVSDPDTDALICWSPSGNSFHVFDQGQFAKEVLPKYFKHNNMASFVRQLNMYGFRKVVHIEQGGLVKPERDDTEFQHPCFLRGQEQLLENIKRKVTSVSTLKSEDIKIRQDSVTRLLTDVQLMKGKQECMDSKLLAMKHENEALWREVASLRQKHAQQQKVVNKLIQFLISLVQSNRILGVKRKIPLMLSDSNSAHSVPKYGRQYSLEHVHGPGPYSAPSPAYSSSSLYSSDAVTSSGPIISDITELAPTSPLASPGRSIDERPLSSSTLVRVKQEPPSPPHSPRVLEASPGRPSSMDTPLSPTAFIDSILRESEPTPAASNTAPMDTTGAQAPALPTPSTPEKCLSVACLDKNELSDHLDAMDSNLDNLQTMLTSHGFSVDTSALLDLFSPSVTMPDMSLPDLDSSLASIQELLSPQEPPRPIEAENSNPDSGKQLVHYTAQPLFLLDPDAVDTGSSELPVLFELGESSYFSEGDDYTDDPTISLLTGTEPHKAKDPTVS
Assay: decrease of HSF1-responsive luciferase luminescence – cell-based, NIH3T3, dose retest, confirmation (AID 2382);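 also: NIH3T3 fibroblasts with HSF1-driven luciferase reporter stressed by proteasome inhibitor MG132; luminescence from HSF1-driven luciferase expression after 8 hours of MG132 stress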
Type: functional
Calls of active or inactive are those of the source.
What EC50 was measured for each of the following?

Which EC50 value is on record for "CCOC(=O)c1c(CN(C)C)n(C)c2ccc(OC(C)=O)cc12" ?
> 195 µM (not active)

What does the data say about its EC50? Entry: "O=S(=O)(Nc1ccncc1)c1ccc(Cl)cc1"
> 195 µM (not active)

What EC50 value was documented for this compound, "Nc1[nH]cnc2nc(SCCOc3ccc(Cl)cc3)nc1-2" ?
> 195 µM (not active)

Which EC50 is reported for this compound? "Nc1nc(CCl)nc(Nc2cccc3ccccc23)n1"
3.74 µM (active)

What does the data say about its EC50? Entry: "Cc1cccc(NC(=O)c2sc(-c3ccccc3)nc2-c2ccc([N+](=O)[O-])cc2)c1"
> 195 µM (not active)

Data request, read-out EC50, for "Cc1nc2sccn2c(=O)c1S(=O)(=O)Nc1ccc(N2CCOCC2)c(Cl)c1"
92.2 µM (active)

Please give the measured EC50 for this compound: "CC(C)c1ccc(NC(=O)N(CCc2nc3ccccc3[nH]2)C2CCCC2)cc1"
> 195 µM (not active)

Given "c1ccc(COc2cccc(CN3CCN(c4ccccn4)CC3)c2)cc1" , state its recorded EC50.
> 195 µM (not active)

Name the recorded EC50 for "Cc1ccc(NC(=O)C2=C(c3ccccc3)S(=O)(=O)CCS2(=O)=O)cc1" .
6.3 µM (active)

What does the data say about its EC50? Entry: "CCCCN1C=CC(=C2C(=O)c3ccccc3C2=O)C=C1"
0.356 µM (active)

# query: EC50 of entry CC1Oc2ccccc2N(CC(=O)NCc2ccccc2)C1=O (stereo unspecified)
> 195 µM (not active)

Looking for the measured EC50 of Oc1[nH]c2ccccc2c1N=NC(S)=NCC1CCCO1 (stereo unspecified) , can you help?
> 195 µM (not active)

Query: EC50; subject: "N#CCCn1cc(C(=O)Nc2ccc([N+](=O)[O-])cc2)c(-c2ccccc2)n1"
> 195 µM (not active)

Can you share its EC50? I mean this compound: "COc1ccc(CCNC(=O)c2cccc([N+](=O)[O-])c2)cc1OC"
2.26 µM (active)

Look at this compound and give its reported EC50. "CC(C)OC(=O)c1sc2nc(-c3ccccc3)ccc2c1N"
< 0.16 µM (active)

Give its EC50 value. Item: "COc1ccc(OC)c(N2C(=O)NC(=O)/C(=C\c3ccc([N+](=O)[O-])s3)C2=O)c1"
> 195 µM (not active)

---

target: Voltage-gated N-type calcium channel alpha-1B subunit/Amyloid beta A4 precursor protein-binding family A member 1 (Homo sapiens, UniProt Q00975+Q02410); format: protein assay
Sequence (Q00975 whole entry): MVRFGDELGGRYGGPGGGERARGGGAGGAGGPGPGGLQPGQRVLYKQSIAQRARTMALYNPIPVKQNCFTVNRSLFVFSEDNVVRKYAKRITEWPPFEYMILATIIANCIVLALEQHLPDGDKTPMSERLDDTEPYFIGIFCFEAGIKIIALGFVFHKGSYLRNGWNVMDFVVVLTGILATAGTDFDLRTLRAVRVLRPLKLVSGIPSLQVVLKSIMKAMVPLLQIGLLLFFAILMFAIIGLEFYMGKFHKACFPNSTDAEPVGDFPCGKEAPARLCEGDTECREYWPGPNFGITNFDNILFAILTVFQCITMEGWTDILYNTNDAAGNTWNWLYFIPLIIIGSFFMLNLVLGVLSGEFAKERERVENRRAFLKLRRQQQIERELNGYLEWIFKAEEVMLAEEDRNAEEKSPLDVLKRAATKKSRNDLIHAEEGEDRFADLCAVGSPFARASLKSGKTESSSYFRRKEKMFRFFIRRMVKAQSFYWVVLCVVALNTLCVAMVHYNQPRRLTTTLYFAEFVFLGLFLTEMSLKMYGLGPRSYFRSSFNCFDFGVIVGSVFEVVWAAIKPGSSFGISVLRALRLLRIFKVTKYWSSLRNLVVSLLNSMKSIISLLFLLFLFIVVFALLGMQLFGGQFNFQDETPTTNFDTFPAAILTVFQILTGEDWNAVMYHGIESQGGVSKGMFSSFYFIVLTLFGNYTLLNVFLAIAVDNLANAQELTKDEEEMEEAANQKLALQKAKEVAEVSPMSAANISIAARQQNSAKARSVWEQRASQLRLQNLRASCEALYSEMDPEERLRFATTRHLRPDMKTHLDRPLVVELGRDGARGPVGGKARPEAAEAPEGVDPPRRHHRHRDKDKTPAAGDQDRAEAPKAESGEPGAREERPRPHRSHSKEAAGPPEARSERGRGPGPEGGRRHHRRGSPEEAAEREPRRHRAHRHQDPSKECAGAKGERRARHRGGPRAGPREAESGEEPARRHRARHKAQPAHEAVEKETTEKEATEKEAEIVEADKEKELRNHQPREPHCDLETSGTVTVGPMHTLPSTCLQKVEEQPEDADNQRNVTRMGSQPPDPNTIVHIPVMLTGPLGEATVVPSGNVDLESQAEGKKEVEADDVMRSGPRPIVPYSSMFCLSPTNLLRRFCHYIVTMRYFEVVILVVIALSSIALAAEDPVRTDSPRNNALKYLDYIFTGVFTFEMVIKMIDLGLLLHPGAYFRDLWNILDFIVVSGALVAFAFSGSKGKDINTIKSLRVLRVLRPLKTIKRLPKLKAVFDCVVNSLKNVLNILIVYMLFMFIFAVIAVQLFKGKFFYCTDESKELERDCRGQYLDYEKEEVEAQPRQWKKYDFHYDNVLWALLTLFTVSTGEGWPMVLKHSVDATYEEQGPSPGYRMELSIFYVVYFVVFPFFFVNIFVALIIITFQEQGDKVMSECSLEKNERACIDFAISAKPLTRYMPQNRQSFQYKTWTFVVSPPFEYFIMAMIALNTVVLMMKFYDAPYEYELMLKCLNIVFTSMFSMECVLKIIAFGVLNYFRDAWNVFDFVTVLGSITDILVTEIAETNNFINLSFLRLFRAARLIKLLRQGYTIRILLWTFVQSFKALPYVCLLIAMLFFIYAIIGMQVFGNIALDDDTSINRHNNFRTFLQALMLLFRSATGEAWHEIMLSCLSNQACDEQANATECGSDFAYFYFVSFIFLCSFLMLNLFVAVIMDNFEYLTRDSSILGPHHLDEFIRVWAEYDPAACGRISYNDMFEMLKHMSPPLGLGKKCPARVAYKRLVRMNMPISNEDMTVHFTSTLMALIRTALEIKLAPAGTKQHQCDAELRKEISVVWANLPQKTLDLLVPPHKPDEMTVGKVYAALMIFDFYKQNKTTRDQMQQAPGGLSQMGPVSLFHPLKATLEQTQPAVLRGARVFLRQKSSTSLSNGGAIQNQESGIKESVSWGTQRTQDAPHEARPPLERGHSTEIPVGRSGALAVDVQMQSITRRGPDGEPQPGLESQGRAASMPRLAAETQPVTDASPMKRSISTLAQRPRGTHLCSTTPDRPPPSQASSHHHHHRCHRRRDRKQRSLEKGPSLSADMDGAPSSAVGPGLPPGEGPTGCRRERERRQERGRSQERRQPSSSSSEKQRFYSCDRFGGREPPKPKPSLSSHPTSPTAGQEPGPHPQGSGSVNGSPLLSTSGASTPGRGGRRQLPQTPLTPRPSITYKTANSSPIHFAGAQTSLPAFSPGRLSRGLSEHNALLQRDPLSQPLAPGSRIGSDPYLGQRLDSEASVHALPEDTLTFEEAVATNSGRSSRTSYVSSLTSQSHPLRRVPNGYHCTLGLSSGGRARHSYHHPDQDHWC
Sequence (Q02410 whole entry): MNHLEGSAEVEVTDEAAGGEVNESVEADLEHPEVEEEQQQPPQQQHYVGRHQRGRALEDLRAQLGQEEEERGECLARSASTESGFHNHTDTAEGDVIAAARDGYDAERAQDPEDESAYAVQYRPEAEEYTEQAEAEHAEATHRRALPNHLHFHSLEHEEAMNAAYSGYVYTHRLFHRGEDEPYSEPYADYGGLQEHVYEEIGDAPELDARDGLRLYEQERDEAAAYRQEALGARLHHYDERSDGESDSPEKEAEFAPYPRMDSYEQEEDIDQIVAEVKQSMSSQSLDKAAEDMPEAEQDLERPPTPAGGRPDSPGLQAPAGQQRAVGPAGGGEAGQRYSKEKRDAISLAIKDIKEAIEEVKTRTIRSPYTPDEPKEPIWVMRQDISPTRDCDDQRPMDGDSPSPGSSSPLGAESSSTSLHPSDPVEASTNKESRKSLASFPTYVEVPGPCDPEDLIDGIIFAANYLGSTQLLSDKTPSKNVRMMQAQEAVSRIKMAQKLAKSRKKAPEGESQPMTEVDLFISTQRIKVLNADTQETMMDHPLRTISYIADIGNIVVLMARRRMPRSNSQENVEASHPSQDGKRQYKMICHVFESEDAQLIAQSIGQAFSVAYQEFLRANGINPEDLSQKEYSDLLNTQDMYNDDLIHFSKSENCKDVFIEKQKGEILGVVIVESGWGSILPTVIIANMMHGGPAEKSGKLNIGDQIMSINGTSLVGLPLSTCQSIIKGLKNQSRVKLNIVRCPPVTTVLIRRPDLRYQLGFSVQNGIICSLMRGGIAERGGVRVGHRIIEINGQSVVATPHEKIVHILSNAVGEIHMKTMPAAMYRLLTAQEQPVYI
Active and inactive are the calls of the source.
Mark one answer only. Choices: active, inactive

Recorded test outcome, item CC1=C(C#N)C(=O)N(C2CCS(=O)(=O)C2)C(=O)/C1=C\c1ccco1 (stereo not given)
active

Hi, do you know how "O=C(CCS(=O)(=O)c1ccc(Br)cc1)NCc1ccco1" came out in this test?
inactive

Which outcome was entered for the compound "COc1ccc(N2C(=O)NC(=O)/C(=C\c3ccc([N+](=O)[O-])s3)C2=O)cc1" in this test?
active

Query: recorded result category for "O=C1c2ccccc2-c2onc3ccc(NCCCn4ccnc4)c1c23" in this test
inactive

Could you please tell me the result logged for "COc1cc(NC(=O)c2ccccc2)ccc1NC(=O)c1cc2ccccc2o1" in this assay?
inactive

---

biological target: UniProt P63165; assay: SUMO1 protein-protein binding blockers, potency – biochemical, FRET, dose response (AID 624383); type: functional; conditions: read-out: IC50_Mean
Sequence (P63165 whole entry): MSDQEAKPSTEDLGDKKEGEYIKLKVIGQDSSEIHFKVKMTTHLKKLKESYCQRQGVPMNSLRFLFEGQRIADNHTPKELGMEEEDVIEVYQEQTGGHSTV
Active and inactive are the calls of the source.
Pick one and only one: active, inactive

Hi, sorry to bother you, what did the test record for "COc1ccc(Br)cc1/C=N/Nc1ccc(S(=O)(=O)Nc2ccccc2C(=O)O)cc1[N+](=O)[O-]" ?
inactive

// return assay outcome for "Sc1nnc(-c2cc(-c3ccccc3)[nH]n2)n1/N=C/c1cccc(Cl)c1"
active

Status in this test for "O=c1c(-c2c(O)cc(O)c3c(=O)cc(-c4ccc(O)cc4)oc23)c(-c2ccc(O)cc2)oc2cc(O)cc(O)c12" ?
active

For "NC(=O)c1ccc2c(=O)n3c(-c4cc(Cl)c(N)c(Cl)c4)csc3nc2c1" , which call appears in the assay record?
active

Record request — test call for "C=CCOc1ccc(C=NNc2ccc(S(=O)(=O)Nc3ccccc3C(=O)O)cc2[N+](=O)[O-])cc1OC"
inactive
